Data origin: PubChem BioAssay

The entries below come with measured z-score values attached.
Assay: P. aeruginosa biofilm formation inhibitors, primary screen, PAO1 strain, BacTiter-Glo luminescence, LB-PBS (AID 1144)
Settings: 12 h, higher = more signal
measured_endpoint: z-score

molecule | measured_endpoint | experimental_result
CCOC(=O)[C@H](CC(C)C)NC(=O)CCC1CC(OC(=O)NCc2cccc3ccccc23)CC2(CCCC(COC(=O)NCCCN3CCCC3=O)O2)O1 (stereo not given in full) | z-score | -0.908
O=C1C[C@@H](O)[C@@H](O)[C@@H]2[C@@H]3C(=O)N(c4cccc(Oc5ccccc5)c4)C(=O)[C@@H]3CC[C@H]12 | z-score | 0.247
CCCNC(=O)OC[C@H]1O[C@H](c2ccccc2)C=C[C@@H]1Oc1ccc(OC)cc1 | z-score | 0.404
CCOC(=O)[C@H](Cc1ccccc1)NC(=O)OC1CC(CCC2CC(CC)=NO2)OC2(CCCC(COC(=O)NCCC(C)C)O2)C1 (stereo not given in full) | z-score | 0.636
CO[C@@H]1COC(=O)[C@@H](C)NC(=O)CC=C[C@@H](C)[C@H](NS(=O)(=O)c2ccc(C)cc2)COC(=O)[C@H](C)NC(=O)CC=C[C@H]1C | z-score | 0.829
C[C@H]1Cc2c(COc3ccccc3)nc3c(c2CO1)CN(CCOc1ccccc1)CC3 | z-score | -1.96
O=C1OCCC=C1C(O)CCc1ccccc1 (stereo not given) | z-score | 1.15
CC(C)=CCCC(C)=CCON=C1C[C@@H](O)[C@@H](O)[C@@H]2[C@@H]3C(=O)N(C[C@@H]4CCCO4)C(=O)[C@@H]3CC[C@H]12 | z-score | 0.175
COCOc1ccc(Br)cc1C(=O)[C@@H]1O[C@H]1c1cccc(OC)c1 | z-score | 0.64
CC(C)=CCCC(C)=CCON=C1C[C@@H](O)[C@@H](O)[C@@H]2[C@@H]3C(=O)N(c4cccc(Oc5ccccc5)c4)C(=O)[C@@H]3CC[C@@H]12 | z-score | -0.375
